Source listed as PubChem BioAssay AID1918947.

# Test system: A498 complex spheroid viability
# PROTOCOL DETAILS: Anticancer human tumor A498 cell line growth inhibition; active = viability on the fitted dose curve at most 10% of control; inactive = the rest;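 also: spheroids exposed to agents for seven days before readout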
# CONDITIONS: second compound 10 µM; first compound 0.1 µM
Pick from active, inactive when you respond.

{"columns": ["COMPOUND", "CLASSIFICATION"],
 "data": [
  ["CC[C@@]1(O)C(=O)OCc2c1cc1n(c2=O)Cc2cc3c(CN(C)C)c(O)ccc3nc2-1 + NC1CCC(NC2CC2c2ccccc2)CC1", "inactive"],
  ["Nc1ncn(C2CC(O)C(CO)O2)c(=O)n1 (stereo not drawn) + NC1CCC(NC2CC2c2ccccc2)CC1", "inactive"],
  ["CC[C@@]1(O)C(=O)OCc2c1cc1n(c2=O)Cc2cc3c(CN(C)C)c(O)ccc3nc2-1 + NC1CC1c1ccc(-c2cccc(O)c2)cc1", "inactive"],
  ["CC(C)CC(NC(=O)CNC(=O)c1cc(Cl)ccc1Cl)B1OC(=O)CC(CC(=O)O)(C(=O)O)O1 (stereo not drawn) + NC1CCC(NC2CC2c2ccccc2)CC1", "active"],
  ["COc1cc(Nc2ncc3c(n2)-c2ccc(Cl)cc2C(c2c(F)cccc2OC)=NC3)ccc1C(=O)O + NC1CC1c1ccc(-c2cccc(O)c2)cc1", "inactive"]
]}

Query block: Hi, do you know how O=C(c1cc(Cc2n[nH]c(=O)c3ccccc23)ccc1F)N1CCN(C(=O)C2CC2)CC1 + NC1CCC(NC2CC2c2ccccc2)CC1 came out in this test?
Result block: inactive

Query block: Quick one: CC1COCCN1c1cc(-c2ccnn2C)c2ccnc(-c3ccn[nH]3)c2n1 (stereo not drawn) + NC1CCC(NC2CC2c2ccccc2)CC1
Result block: inactive

Query block: Then what about the compound CC(C)CC(NC(=O)C(Cc1ccccc1)NC(=O)c1cnccn1)B(O)O (stereo not drawn) + NC1CCC(NC2CC2c2ccccc2)CC1 ?
Result block: active

Query block: One more compound: O=C(C=Cn1cnc(-c2cc(C(F)(F)F)cc(C(F)(F)F)c2)n1)NNc1cnccn1 + NC1CCC(NC2CC2c2ccccc2)CC1
Result block: inactive

Query block: Quick one: CC(C)CC(NC(=O)CNC(=O)c1cc(Cl)ccc1Cl)B1OC(=O)CC(CC(=O)O)(C(=O)O)O1 (stereo not drawn) + NC1CC1c1ccc(-c2cccc(O)c2)cc1
Result block: active

----------
# Test system: A498 complex spheroid viability
# PROTOCOL DETAILS: Anticancer human tumor A498 cell line growth inhibition;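 also: spheroids exposed to agents for seven days before readout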
# CONDITIONS: curve of first compound; second compound 0.1 µM
# IC50 per record follows
Numeric only. Scale: nM

{"columns": ["COMPOUND", "IC50 / nM"],
 "data": [
  ["Nc1ccccc1NC(=O)c1ccc(CNC(=O)OCc2cccnc2)cc1 + NC1CCC(NC2CC2c2ccccc2)CC1", 203]
]}

Query block: Which IC50 is listed for COc1ccc([C@@H](O)c2cc(-c3ncnc4cc(N5CCOCC5)ccc34)c(F)cc2Cl)nn1 + NC1CC1c1ccc(-c2cccc(O)c2)cc1 ?
Result block: 96.3

Query block: Please answer likewise for CC1COCCN1c1cc(-c2ccnn2C)c2ccnc(-c3ccn[nH]3)c2n1 (centres undefined) + NC1CCC(NC2CC2c2ccccc2)CC1
Result block: 21.9

----------
# System: A498 complex spheroid viability
# PROTOCOL DETAILS: Anticancer human tumor A498 cell line growth inhibition;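 also: spheroids exposed to agents for seven days before readout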;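 as to viability, T/C: 100% = DMSO vehicle-treated spheroids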
# CONDITIONS: second compound 0.316 µM; first compound 0.1 µM; stronger effect = lower value
viability, T/C vs 60%: less than gives true; not less than gives false.

{"columns": ["MOLECULE", "CLASSIFICATION"],
 "data": [
  ["CC(C)CC(NC(=O)C(Cc1ccccc1)NC(=O)c1cnccn1)B(O)O (stereo not drawn) + NC1CCC(NC2CC2c2ccccc2)CC1", "true"],
  ["COc1cc(Nc2ncc3c(n2)-c2ccc(Cl)cc2C(c2c(F)cccc2OC)=NC3)ccc1C(=O)O + NC1CC1c1ccc(-c2cccc(O)c2)cc1", "true"]
]}

Query block: viability, T/C under 60%? Item: Nc1ncn(C2CC(O)C(CO)O2)c(=O)n1 (stereo not drawn) + NC1CCC(NC2CC2c2ccccc2)CC1
Result block: false

Query block: And what about the molecule O=C(c1cc(Cc2n[nH]c(=O)c3ccccc23)ccc1F)N1CCN(C(=O)C2CC2)CC1 + NC1CC1c1ccc(-c2cccc(O)c2)cc1 ?
Result block: false

Query block: Now the same for O=C(c1cc(Cc2n[nH]c(=O)c3ccccc23)ccc1F)N1CCN(C(=O)C2CC2)CC1 + NC1CCC(NC2CC2c2ccccc2)CC1
Result block: false

Query block: Same question, COc1cc(Nc2ncc3c(n2)-c2ccc(Cl)cc2C(c2c(F)cccc2OC)=NC3)ccc1C(=O)O + NC1CCC(NC2CC2c2ccccc2)CC1 this time
Result block: false

Query block: Next record, please: CC1COCCN1c1cc(C2(S(C)(=N)=O)CC2)nc(-c2ccnc3[nH]ccc23)n1 (stereo not drawn) + NC1CC1c1ccc(-c2cccc(O)c2)cc1
Result block: false

Query block: Same question for O=C(C=Cn1cnc(-c2cc(C(F)(F)F)cc(C(F)(F)F)c2)n1)NNc1cnccn1 + NC1CCC(NC2CC2c2ccccc2)CC1 please.
Result block: true

Query block: Also need O=C(C=Cn1cnc(-c2cc(C(F)(F)F)cc(C(F)(F)F)c2)n1)NNc1cnccn1 + NC1CC1c1ccc(-c2cccc(O)c2)cc1 , thanks.
Result block: true

Query block: What about CC(C)c1c(-c2ccccc2)nc2c(C#N)c[nH]n2c1=O + NC1CC1c1ccc(-c2cccc(O)c2)cc1 ?
Result block: false

Query block: Also CC(C)CC(NC(=O)CNC(=O)c1cc(Cl)ccc1Cl)B1OC(=O)CC(CC(=O)O)(C(=O)O)O1 (stereo not drawn) + NC1CC1c1ccc(-c2cccc(O)c2)cc1 ?
Result block: true

Query block: Now try CC(C)c1c(-c2ccccc2)nc2c(C#N)c[nH]n2c1=O + NC1CCC(NC2CC2c2ccccc2)CC1 .
Result block: false

Query block: Moving on to CC1COCCN1c1cc(C2(S(C)(=N)=O)CC2)nc(-c2ccnc3[nH]ccc23)n1 (stereo not drawn) + NC1CCC(NC2CC2c2ccccc2)CC1
Result block: false
